molecular target: P300 (Homo sapiens, UniProt Q09472); construct: endogenous in cells; host or cells: 22Rv1 (ATCC CRL-2505) human prostate cancer cells; assay: P300 degradation in 22Rv1 cells (5 h); type: cell-based; conditions: 22Rv1 cells, 5 h
Sequence (Q09472 whole entry): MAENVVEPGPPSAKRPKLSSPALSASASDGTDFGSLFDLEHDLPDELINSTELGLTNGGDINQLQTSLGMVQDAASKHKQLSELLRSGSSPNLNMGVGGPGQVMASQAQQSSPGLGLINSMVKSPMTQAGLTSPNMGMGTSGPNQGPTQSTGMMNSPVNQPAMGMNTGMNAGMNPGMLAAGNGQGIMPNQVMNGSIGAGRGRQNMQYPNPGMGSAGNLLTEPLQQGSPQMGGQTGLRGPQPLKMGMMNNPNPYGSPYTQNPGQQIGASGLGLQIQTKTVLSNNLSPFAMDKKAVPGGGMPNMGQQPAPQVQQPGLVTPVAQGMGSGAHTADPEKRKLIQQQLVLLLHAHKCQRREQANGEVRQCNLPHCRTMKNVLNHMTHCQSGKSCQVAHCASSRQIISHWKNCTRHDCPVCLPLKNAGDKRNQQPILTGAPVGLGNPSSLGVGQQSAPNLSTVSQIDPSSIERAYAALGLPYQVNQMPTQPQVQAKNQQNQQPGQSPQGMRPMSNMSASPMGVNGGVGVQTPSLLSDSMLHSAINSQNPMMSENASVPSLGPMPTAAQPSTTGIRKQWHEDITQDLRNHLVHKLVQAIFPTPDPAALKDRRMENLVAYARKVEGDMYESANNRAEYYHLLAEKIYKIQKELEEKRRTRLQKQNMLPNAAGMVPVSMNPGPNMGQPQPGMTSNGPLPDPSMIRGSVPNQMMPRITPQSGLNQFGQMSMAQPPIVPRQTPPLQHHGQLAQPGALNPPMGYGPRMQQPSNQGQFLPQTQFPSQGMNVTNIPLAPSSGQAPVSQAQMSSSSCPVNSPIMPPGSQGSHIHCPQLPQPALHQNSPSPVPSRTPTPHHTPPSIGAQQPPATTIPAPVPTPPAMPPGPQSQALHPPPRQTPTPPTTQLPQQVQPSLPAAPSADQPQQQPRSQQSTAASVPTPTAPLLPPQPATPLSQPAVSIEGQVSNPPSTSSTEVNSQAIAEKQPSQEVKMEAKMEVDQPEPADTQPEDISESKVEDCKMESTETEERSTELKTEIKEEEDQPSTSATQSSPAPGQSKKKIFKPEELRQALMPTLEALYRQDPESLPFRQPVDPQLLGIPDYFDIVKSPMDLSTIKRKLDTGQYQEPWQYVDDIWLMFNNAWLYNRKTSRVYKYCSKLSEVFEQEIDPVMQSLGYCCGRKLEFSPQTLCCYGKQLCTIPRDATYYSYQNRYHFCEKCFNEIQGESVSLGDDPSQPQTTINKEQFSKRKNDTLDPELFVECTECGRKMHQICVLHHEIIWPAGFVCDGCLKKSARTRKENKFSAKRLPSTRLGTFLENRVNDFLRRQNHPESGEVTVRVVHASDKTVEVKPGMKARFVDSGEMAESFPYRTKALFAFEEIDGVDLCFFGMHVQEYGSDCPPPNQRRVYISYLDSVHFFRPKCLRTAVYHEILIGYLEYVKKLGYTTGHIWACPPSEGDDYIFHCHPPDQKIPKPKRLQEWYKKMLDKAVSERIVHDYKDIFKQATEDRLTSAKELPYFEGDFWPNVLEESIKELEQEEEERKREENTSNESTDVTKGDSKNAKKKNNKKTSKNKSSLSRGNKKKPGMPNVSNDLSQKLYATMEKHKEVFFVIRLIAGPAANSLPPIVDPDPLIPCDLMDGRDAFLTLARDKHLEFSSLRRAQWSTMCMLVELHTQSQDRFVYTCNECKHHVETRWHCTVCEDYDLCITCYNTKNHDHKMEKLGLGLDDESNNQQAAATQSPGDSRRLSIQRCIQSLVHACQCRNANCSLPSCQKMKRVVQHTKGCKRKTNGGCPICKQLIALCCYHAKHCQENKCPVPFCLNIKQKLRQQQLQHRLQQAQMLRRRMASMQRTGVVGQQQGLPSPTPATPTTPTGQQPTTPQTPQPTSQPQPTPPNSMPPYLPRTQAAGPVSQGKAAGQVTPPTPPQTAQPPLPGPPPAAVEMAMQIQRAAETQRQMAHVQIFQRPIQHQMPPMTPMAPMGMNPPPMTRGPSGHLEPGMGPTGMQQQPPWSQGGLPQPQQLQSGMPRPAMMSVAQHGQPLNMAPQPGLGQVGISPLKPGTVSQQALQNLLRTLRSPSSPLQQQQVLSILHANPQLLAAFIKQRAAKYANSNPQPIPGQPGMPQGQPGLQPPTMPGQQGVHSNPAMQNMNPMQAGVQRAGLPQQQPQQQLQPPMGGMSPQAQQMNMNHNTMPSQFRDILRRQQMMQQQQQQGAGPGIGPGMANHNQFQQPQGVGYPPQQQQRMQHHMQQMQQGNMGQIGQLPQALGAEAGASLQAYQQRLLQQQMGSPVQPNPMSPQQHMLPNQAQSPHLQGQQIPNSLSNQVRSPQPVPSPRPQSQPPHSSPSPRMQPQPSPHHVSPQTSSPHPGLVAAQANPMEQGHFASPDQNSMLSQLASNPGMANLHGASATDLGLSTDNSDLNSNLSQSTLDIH
Measured DC50 accompanies every entry in the list below.

Study these solved cases before continuing.
compound="CC(=O)N1CCc2c(c(N3CCCc4cc5c(cc43)CCCC5)nn2C2CCN(C(=O)CN3CCc4cc5c(cc4C3)C(=O)N(C3CCC(=O)NC3=O)C5=O)CC2)C1 (stereo not drawn) [CP-078]" measured_on="P300 (Homo sapiens, UniProt Q09472)" value_measured="< 10 nM"
compound="CC(=O)N1CCc2c(c(N3CCCc4cc(-c5cnn(C)c5)c(C(F)F)cc43)nn2[C@H]2CC[C@@H](CN3CCc4cc5c(cc4C3)C(=O)N(C3CCC(=O)NC3=O)C5=O)CC2)C1 (relative stereo) [CP-050]" measured_on="P300 (Homo sapiens, UniProt Q09472)" value_measured="< 10 nM"
compound="CC(=O)N1CCc2c(c(N3CCCc4cc(C(C)C)c(C(F)F)cc43)nn2C2CCN(C(=O)CN3Cc4cc5c(cc4C3)C(=O)N(C3CCC(=O)NC3=O)C5=O)CC2)C1 (stereo not drawn) [CP-015]" measured_on="P300 (Homo sapiens, UniProt Q09472)" value_measured="< 10 nM"
compound="Cn1cc(-c2cc3c(cc2C(F)F)N(c2nn(C4CCN(C(=O)CN5Cc6cc7c(cc6C5)C(=O)N(C5CCC(=O)NC5=O)C7=O)CC4)c4c2CN(CC(F)(F)F)CC4)CCC3)cn1 (stereo not drawn)" measured_on="P300 (Homo sapiens, UniProt Q09472)" value_measured="> 1000 nM"
compound="CC(=O)N1CCc2cc3c(cc2C1)CCCN3c1nn(C2CCN(C(=O)CN3Cc4cc5c(cc4C3)C(=O)N(C3CCC(=O)NC3=O)C5=O)CC2)c2c1CN(C(C)=O)CC2 (stereo not drawn) [CP-080]" measured_on="P300 (Homo sapiens, UniProt Q09472)" value_measured="< 10 nM"
compound="CC(=O)N1CCc2c(c(-c3cccc4ccccc34)nn2C2CCN(C(=O)CN3CCc4cc5c(cc4C3)C(=O)N(C3CCC(=O)NC3=O)C5=O)CC2)C1 (stereo not drawn) [CP-076]" measured_on="P300 (Homo sapiens, UniProt Q09472)" value_measured="< 10 nM"
compound="CC(=O)N1CCc2c(c(N3CCCc4cc(C5CC5)c(C(F)F)cc43)nn2C2CCN(C(=O)CN3CCc4cc5c(cc4C3)C(=O)N(C3CCC(=O)NC3=O)C5=O)CC2)C1 (stereo not drawn) [CP-014]" measured_on="P300 (Homo sapiens, UniProt Q09472)" value_measured="< 10 nM"
compound="CCc1cc2c(cc1C(F)F)N(c1nn(C3CCN(C(=O)CN4Cc5cc6c(cc5C4)C(=O)N(C4CCC(=O)NC4=O)C6=O)CC3)c3c1CN(C(C)=O)CC3)CCC2 (stereo not drawn) [CP-012]" measured_on="P300 (Homo sapiens, UniProt Q09472)" value_measured="< 10 nM"
compound="Cc1noc(C)c1-c1ccc2c(c1)nc([C@@H]1CCCC(=O)N1c1ccc(F)c(F)c1)n2C1CCN(C(=O)CN2CCc3cc4c(cc3C2)C(=O)N(C2CCC(=O)NC2=O)C4=O)CC1 (stereo partly drawn) [CP-063]" measured_on="P300 (Homo sapiens, UniProt Q09472)" value_measured="> 1000 nM"
compound="CC(=O)N1CCc2c(c(N3CCCc4cc(-c5cnn(C)c5)c(C(F)F)cc43)nn2C2CCC(CCN3CCc4cc5c(cc4C3)C(=O)N(C3CCC(=O)NC3=O)C5=O)CC2)C1 (stereo not drawn) [CP-045]" measured_on="P300 (Homo sapiens, UniProt Q09472)" value_measured="< 10 nM"

Quick one: DC50 of CC(=O)N1CCc2c(c(N3CCCc4cc(-c5cnn(C)c5)c(C(F)F)cc43)nn2C2CCC(N3CCc4cc5c(cc4C3)C(=O)N(C3CCC(=O)NC3=O)C5=O)CC2)C1 (stereo not drawn) [CP-038] ?
< 10 nM

Check CC(=O)N1Cc2c(N3CCCc4cc(-c5cnn(C)c5)c(C(F)F)cc43)nn(C3CCN(C(=O)CN4Cc5cc6c(cc5C4)C(=O)N(C4CCC(=O)NC4=O)C6=O)CC3)c2C(C)(C)C1 (stereo not drawn) [CP-084] too.
> 1000 nM

Check Cn1cc(-c2cc3c(cc2C(F)F)N(c2nn(C4CCN(C(=O)CN5Cc6cc7c(cc6C5)C(=O)N(C5CCC(=O)NC5=O)C7=O)CC4)c4c2CN(C(=O)CF)CC4)CCC3)cn1 (stereo not drawn) [CP-053] too.
< 100 nM

Check CC(=O)N1CCc2c(c(N3CCCc4cc(-c5cnn(C)c5)c(C(F)F)cc43)nn2[C@H]2CC[C@H](CN3Cc4cc5c(cc4C3)C(=O)N(C3CCC(=O)NC3=O)C5)CC2)C1 (stereo partly drawn) [CP-048] too.
< 10 nM

Check CC(=O)N1CCc2c(c(N3CCCc4cc(C5CC5)c(C(F)F)cc43)nn2C2CCN(C(=O)CN3Cc4cc5c(cc4C3)C(=O)N(C3CCC(=O)NC3=O)C5=O)CC2)C1 (stereo not drawn) [CP-013] too.
< 10 nM

Check CC(=O)N1CCc2c(c(N3CCCc4cc(-c5cccs5)c(C(F)F)cc43)nn2C2CCN(C(=O)CN3Cc4cc5c(cc4C3)C(=O)N(C3CCC(=O)NC3=O)C5=O)CC2)C1 (stereo not drawn) [CP-024] too.
< 10 nM

Check Cn1cc(-c2cc3c(cc2C(F)F)N(c2nn(C4CCN(C(=O)CN5Cc6cc7c(cc6C5)C(=O)N(C5CCC(=O)NC5=O)C7=O)CC4)c4c2CN(CC(F)F)CC4)CCC3)cn1 (stereo not drawn) [CP-058] too.
> 1000 nM

Check CC(=O)N1CCc2c(c(N3CCCc4cc(CCC5CC5)c(C(F)F)cc43)nn2C2CCN(C(=O)CN3Cc4cc5c(cc4C3)C(=O)N(C3CCC(=O)NC3=O)C5=O)CC2)C1 (stereo not drawn) [CP-025] too.
< 10 nM

Check CC(=O)N1CCc2c(c(N3CCCc4cc(CCC(C)C)c(C(F)F)cc43)nn2C2CCN(C(=O)CN3Cc4cc5c(cc4C3)C(=O)N(C3CCC(=O)NC3=O)C5=O)CC2)C1 (stereo not drawn) [CP-026] too.
< 10 nM

Check CC(=O)N1Cc2c(N3CCCc4cc(-c5ccnn5C)c(C(F)F)cc43)nn(C3CCN(C(=O)CN4Cc5cc6c(cc5C4)C(=O)N(C4CCC(=O)NC4=O)C6=O)CC3)c2C(C)(C)C1 (stereo not drawn) [CP-085] too.
> 1000 nM

Check CC(=O)N1CCc2c(c(N3CCCc4cc(-c5cnn(C)c5)c(C(F)F)cc43)nn2C2CCN(CC3Cc4cc5c(cc4C3)C(=O)N(C3CCC(=O)NC3=O)C5=O)CC2)C1 (stereo not drawn) [CP-052] too.
< 10 nM

---

Measured pIC50 accompanies every entry in the list below.
system: HL60; assay: Cell growth inhibition in HL60; format: cell-based; settings: Homo sapiens, HL-60, read-out: Cell Growth Inhibition (IC50) HL60
pIC50: −log10 of the molar value.

compound="CC(=O)N1CCc2c(c(N3CCCc4cc(-c5cnn(C)c5)c(C(F)F)cc43)nn2[C@H]2CC[C@H](CN3Cc4cc5c(cc4C3)C(=O)N(C3CCC(=O)NC3=O)C5=O)CC2)C1 (stereo partly drawn)" measured_on=HL60 value_measured="> 7.00"
compound="CC(=O)N1CCc2c(c(N3CCCc4cc(-c5cnn(C)c5)c(C(F)F)cc43)nn2C[C@H]2CC[C@@H](N3Cc4cc5c(cc4C3)C(=O)N(C3CCC(=O)NC3=O)C5=O)CC2)C1 (stereo partly drawn)" measured_on=HL60 value_measured="> 7.00"

Here is another compound to look at.
Quick one: pIC50 of CC(=O)N1CCc2c(c(N3CCCc4cc(-c5cnn(C)c5)c(C(F)F)cc43)nn2C2CCC(CCN3Cc4cc5c(cc4C3)C(=O)N(C3CCC(=O)NC3=O)C5=O)CC2)C1 (stereo not drawn) ?
> 7.00

---

Target: P300 (Homo sapiens)
Construct: endogenous in cells; host or cells: 22Rv1 (ATCC CRL-2505) human prostate cancer cells
Experiment: P300 degradation in 22Rv1 cells (5 h)
Format: cell-based
Conditions: 22Rv1 cells, 5 h
From the text: Biological Assays. […] Cells with 3-8 passages after purchase were used in experiments.
Measured DC50 accompanies every entry in the list below.

compound="Cn1cc(-c2cc3c(cc2C(F)F)N(c2nn(C4CCN(C(=O)CN5Cc6cc7c(cc6C5)C(=O)N(C5CCC(=O)NC5=O)C7=O)CC4)c4c2CN(C(=O)C2CC2)CC4)CCC3)cn1 (centres unmarked) [CP-054]" value_measured="> 1000 nM"
compound="CC(=O)N1CCc2c(c(N3CCCc4cc(-c5ccccc5)c(C(F)F)cc43)nn2C2CCN(C(=O)CN3Cc4cc5c(cc4C3)C(=O)N(C3CCC(=O)NC3=O)C5=O)CC2)C1 (centres unmarked) [CP-022]" value_measured="< 10 nM"
compound="Cn1cc(-c2cc3c(cc2C(F)F)N(c2nn(C4CCN(C(=O)CN5Cc6cc7c(cc6C5)C(=O)N(C5CCC(=O)NC5=O)C7=O)CC4)c4c2CN(C(=O)C(F)F)CC4)CCC3)cn1 (centres unmarked) [CP-056]" value_measured="> 1000 nM"

Form field - read-out: DC50; system: P300 (Homo sapiens); submitted item: Cc1noc(C)c1-c1ccc2c(c1)nc([C@@H]1CCCC(=O)N1c1ccc(F)c(F)c1)n2C1CCN(C(=O)CN2Cc3cc4c(cc3C2)C(=O)N(C2CCC(=O)NC2=O)C4=O)CC1 (some centres unmarked) [CP-061]
> 1000 nM

Check Cn1cc(-c2cc3c(cc2C(F)F)N(c2nn(C4CCN(C(=O)CN5Cc6cc7c(cc6C5)C(=O)N(C5CCC(=O)NC5=O)C7=O)CC4)c4c2CN(CC(C)(F)F)CC4)CCC3)cn1 (centres unmarked) [CP-059] too.
> 1000 nM

Values compiled from patent US20240150360A1.
